test system: 596521-263-R-J1-PDC complex spheroids, viability % of control; assay: Anticancer human tumor 596521-263-R-J1-PDC patient-derived soft tissue sarcoma cell line growth inhibition [GQUAD]; settings: second compound 3.16 µM; first compound 3.16 µM; active compounds read low
Readings of viability, T/C for the listed compounds
The answer is to be given in %; state only the numeric part.

# annotated cases, reported viability, T/C shown
[
  {
    "COMPOUND": "CC1COCCN1c1cc(-c2ccnn2C)c2ccnc(-c3ccn[nH]3)c2n1 (stereo not drawn) + Cc1cnc(CNC(=O)c2c(=O)c3ccc(N4CCCN(C)CC4)nc3n3c2sc2ccccc23)cn1",
    "NUMBER": 29.4
  },
  {
    "COMPOUND": "COc1ncnc(C2CC2)c1-c1ncc2cnn(Cc3ccc(-c4nc(C(F)(F)F)cn4C(C)C)cc3)c2n1 + Cc1[nH]c2ccc(F)cc2c1-c1nc2c3cccnc3c3ncccc3c2[nH]1",
    "NUMBER": 29.4
  }
]

As a next step, examine the compound that follows.
Name the recorded viability, T/C of the item CC(=O)O[C@H]1C(=O)[C@@]2(C)[C@H]([C@H](OC(=O)c3ccccc3)[C@]3(O)C[C@H](OC(=O)[C@H](O)[C@@H](NC(=O)c4ccccc4)c4ccccc4)C(C)=C1C3(C)C)[C@]1(OC(C)=O)CO[C@@H]1C[C@@H]2O + CN(C)c1ccc(Nc2c3ccc(NC(=O)CCN4CCCC4)cc3nc3cc(NC(=O)CCN4CCCC4)ccc23)cc1 in your answer.
27.3

###

Recorded viability, T/C by entry
system: 596521-263-R-J1-PDC complex spheroids, viability % of control; test: Anticancer human tumor 596521-263-R-J1-PDC cell line growth inhibition [GQUAD]; details: second compound 0.1 µM; first compound 1 µM; active compounds read low;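 further: spheroids exposed to drugs for 7 days before viability reading; 100% = DMSO vehicle control viability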
Report the figure in % without appending any unit label.

[
  {
    "COMPOUND": "O=C(c1cc(Cc2n[nH]c(=O)c3ccccc23)ccc1F)N1CCN(C(=O)C2CC2)CC1 + Cc1cnc(CNC(=O)c2c(=O)c3ccc(N4CCCN(C)CC4)nc3n3c2sc2ccccc23)cn1",
    "NUMBER": 70.3
  },
  {
    "COMPOUND": "Nc1ccn(C2OC(CO)C(O)C2(F)F)c(=O)n1 (stereo unspecified) + Cc1[nH]c2ccc(F)cc2c1-c1nc2c3cccnc3c3ncccc3c2[nH]1",
    "NUMBER": 47.2
  },
  {
    "COMPOUND": "C#Cc1c(F)ccc2cc(O)cc(-c3ncc4c(N5CC6CCC(C5)N6)nc(OCC56CCCN5CC(F)C6)nc4c3F)c12 (stereo unspecified) + Cc1cnc(CNC(=O)c2c(=O)c3ccc(N4CCCN(C)CC4)nc3n3c2sc2ccccc23)cn1",
    "NUMBER": 93.5
  },
  {
    "COMPOUND": "CCCS(=O)(=O)Nc1ccc(F)c(C(=O)c2c[nH]c3ncc(-c4ccc(Cl)cc4)cc23)c1F + Cc1cnc(CNC(=O)c2c(=O)c3ccc(N4CCCN(C)CC4)nc3n3c2sc2ccccc23)cn1",
    "NUMBER": 79.4
  }
]

Quote viability, T/C with test system 596521-263-R-J1-PDC complex spheroids, viability % of control for C=CCn1c(=O)c2cnc(Nc3ccc(N4CCN(C)CC4)cc3)nc2n1-c1cccc(C(C)(C)O)n1 + Cc1[nH]c2ccc(F)cc2c1-c1nc2c3cccnc3c3ncccc3c2[nH]1
94.7

Report value: viability, T/C, system: 596521-263-R-J1-PDC complex spheroids, viability % of control, compound: COc1ccc([C@@H](O)c2cc(-c3ncnc4cc(N5CCOCC5)ccc34)c(F)cc2Cl)nn1 + Cc1[nH]c2ccc(F)cc2c1-c1nc2c3cccnc3c3ncccc3c2[nH]1
77.5

Find the measured viability, T/C of COc1ncnc(C2CC2)c1-c1ncc2cnn(Cc3ccc(-c4nc(C(F)(F)F)cn4C(C)C)cc3)c2n1 + Cc1[nH]c2ccc(F)cc2c1-c1nc2c3cccnc3c3ncccc3c2[nH]1 with 596521-263-R-J1-PDC complex spheroids, viability % of control as test system.
67

Write viability, T/C of CC1COCCN1c1cc(C2(O)CC3CCC(C2)O3)c2cnn(-c3ccn[nH]3)c2n1 (stereo unspecified) + Cc1[nH]c2ccc(F)cc2c1-c1nc2c3cccnc3c3ncccc3c2[nH]1 ; system used: 596521-263-R-J1-PDC complex spheroids, viability % of control
35.1

GET viability, T/C where system = 596521-263-R-J1-PDC complex spheroids, viability % of control and item = CC1COCCN1c1cc(-c2ccnn2C)c2ccnc(-c3ccn[nH]3)c2n1 (stereo unspecified) + Cc1[nH]c2ccc(F)cc2c1-c1nc2c3cccnc3c3ncccc3c2[nH]1
41.8

Retrieve viability, T/C on 596521-263-R-J1-PDC complex spheroids, viability % of control; query C#Cc1c(F)ccc2cc(O)cc(-c3ncc4c(N5CC6CCC(C5)N6)nc(OCC56CCCN5CC(F)C6)nc4c3F)c12 (stereo unspecified) + Cc1[nH]c2ccc(F)cc2c1-c1nc2c3cccnc3c3ncccc3c2[nH]1
62.1

Please look at O=c1[nH]cc(F)c(=O)[nH]1 + CN(C)c1ccc(Nc2c3ccc(NC(=O)CCN4CCCC4)cc3nc3cc(NC(=O)CCN4CCCC4)ccc23)cc1 and tell me its recorded viability, T/C on 596521-263-R-J1-PDC complex spheroids, viability % of control.
97

Cited source: PubChem BioAssay AID2060500
